Values from PubChem BioAssay

assay: LFS_MB_P medulloblastoma growth inhibition, cell-based, chromothripsis tumors, cisplatin or BGB combos (AID 1671449); settings: LFS_MB_P medulloblastoma cells, at 0.5 µM;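 further: cells exposed for 96 hours; 0% = vehicle DMSO and 100% = killing by high DMSO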
Active and inactive are the calls of the source. No stated cut-off is given here; in the data, active means inhibition above about 80%; inactive means the rest.
Outcome codes: T = active, F = inactive

                                   compound  assigned_category
0                        O=P(O)(NCCCl)NCCCl                  F
1            CCC1(c2ccccc2)C(=O)NC(=O)NC1=O                  T
2          Cc1c2ccncc2c(C)c2c1[nH]c1ccccc12                  F
3  O=c1[nH]c(=O)n(C2OC(CO)C(O)C2O)cc1F (stereo unspecified)                  F
4    Cn1c(CCCC(=O)O)nc2cc(N(CCCl)CCCl)ccc21                  F
5  Cn1c(COP(=O)(NCCBr)NCCBr)cnc1[N+](=O)[O-]                  F

----------
assay: differential killing of epithelial or mesenchymal cells, primary screen, imaging, PC-3E GFP, TEM4-18 mCherry, co-culture (AID 1345086); settings: imaging cell counts, measured here: mesenchymal TEM4-18 mCherry cell survival, at 1 µM;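 further: cells exposed to compound for 72 h before imaging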
Mark YES for normalised cell number under 1, NO if at or over.

molecule	assigned category
CC1(C)C(=O)C=C[C@@]2(C)C1=C(O)C(=O)[C@]1(C)C2CC[C@@]2(C)[C@H](c3ccoc3)C[C@H]3O[C@]321 (stereo partly drawn)	NO
O1[As]2O[As]3O[As]1O[As](O2)O3	YES
O=C(O)COc1ccc(O)cc1	NO
CC1OC(=O)[C@@H](C(C)C)NC(=O)C(C(C)C)OC(=O)[C@H](C(C)C)NC(=O)C(C)OC(=O)[C@@H](C(C)C)NC(=O)C(C(C)C)OC(=O)[C@H](C(C)C)NC(=O)C(C)OC(=O)[C@@H](C(C)C)NC(=O)C(C(C)C)OC(=O)[C@H](C(C)C)NC1=O (stereo partly drawn)	YES
O=C(O)Cc1cnc[nH]1	YES
C[C@]12CC[C@H](OC3OC(O)C(O)C(O)C3O)C=C1CCC1C2CC[C@]2(C)[C@@H](c3ccc(=O)oc3)CC[C@]12O (stereo partly drawn)	YES
O=[N+]([O-])c1cc([As](=O)(O)O)ccc1O	NO
CC(C)=CCCC1(C)C=Cc2c(O)c3c(c(CC=C(C)C)c2O1)OC12C(CC4CC1C(C)(C)OC2(C/C=C(/C)C(=O)O)C4O)C3=O (stereo not drawn)	NO
N#CC(O[C@@H]1O[C@H](CO[C@@H]2O[C@H](CO)[C@@H](O)[C@H](O)[C@H]2O)[C@@H](O)[C@H](O)[C@H]1O)c1ccccc1 (stereo partly drawn)	YES
CC[C@H](c1cccc(O)c1)[C@@H](C)CN(C)C	YES
C[C@]12CCC3C(CC[C@]4(O)C[C@@H](O)CC[C@]34C=O)[C@@]1(O)CCC2C1=CC(=O)OC1 (stereo partly drawn)	YES
Cc1c(O)c(O)cc2c1CC=C1[C@@]2(C)CC[C@@]2(C)C3C[C@](C)(C(=O)O)CC[C@]3(C)CC[C@]12C (stereo partly drawn)	YES
CC(CO)NC(=O)C1C=C2c3cccc4[nH]cc(c34)C[C@H]2N(C)C1 (stereo partly drawn)	YES
COc1ccc(CN2CCNCC2)c(OC)c1OC	NO

----------
tested on: Aerobactin synthetase IucA (Klebsiella pneumoniae hvKP1); assay: Biochemical IucA enzyme inhibition primary screen of the Spectrum library (AID 1346200); conditions: malachite green pyrophosphate, A620, at 8 µM, stronger effect = lower value;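 further: 100% = wells without compound and 0% = wells lacking enzyme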

compound	activity remaining (%)
CC1(C)CC2C1CCC1(C)OC2(C)CCC1O (stereo unspecified)	120
CC1(C)C(=O)C=C[C@@]2(C)C1C=C[C@]1(C)C2CC[C@@]2(C)[C@H](c3ccoc3)OC(=O)C3OC321 (stereo partly specified)	102
NC(=NCCCCCCN=C(N)/N=C(\N)Nc1ccc(Cl)cc1)/N=C(\N)Nc1ccc(Cl)cc1	95.5
CC(=O)OC1CC[C@@]2(C)C(CCC3C2CC[C@]2(C)C(C4=CC(=O)OC4)C(OC(C)=O)CC32O)C1 (stereo partly specified)	109
Oc1ccc(/C=C/c2cc(O)cc(O)c2)cc1	110
CCC1(c2ccc(N)cc2)CCC(=O)NC1=O (stereo unspecified)	112
NC(N)=NS(=O)(=O)c1ccc(N)cc1	98.6
O=C1C=CC(=O)c2ccccc21	105
O=c1ccc2ccccc2o1	124
NCCCS(=O)(=O)O	104
CC(C(=O)O)c1cccc(C(=O)c2ccccc2)c1 (stereo unspecified)	106
COc1cc2cc3c4cc(OC)c(OC)cc4cc[n+]3c(C)c2cc1OC	95.4
NC(N)=NCCN1CCCCCCC1	104
CN1CC(CNC(=O)OCc2ccccc2)CC2c3cccc4c3c(cn4C)CC21 (stereo unspecified)	113
CCCCCCCCCCCCCCCC[n+]1ccccc1	111
C[C@H]1CC[C@@H](C(C)(C)O)CC2=C1CC[C@@H]2C	102
O=[N+]([O-])c1ccc(O)c([N+](=O)[O-])c1	110
O=C(CCCN1CCN(c2ccccn2)CC1)c1ccc(F)cc1	124
COc1ccc2cc(CCC(C)=O)ccc2c1	99.8
C=C1C2CC[C@@]3(C)[C@H](c4ccoc4)OC(=O)C[C@]13O[C@H]1C[C@H](OC(C)=O)C(C)(C)[C@H](CC(=O)OC)[C@@]21C	98.7
COc1cc(Cc2cnc(N)nc2N)cc(OC)c1OC	93.2
C/C=C(\C)C(=O)O[C@@H]1c2c(ccc3ccc(=O)oc23)OC(C)(C)[C@@H]1OC(C)=O	87
CC(N=C(NC#N)Nc1ccncc1)C(C)(C)C (stereo unspecified)	105
COc1cc(C)c(C(=O)Oc2cc(C)c(C(=O)O)c(O)c2C)c(OC)c1C	91.1
O=C1OC2(c3ccc(O)cc3Oc3cc(O)ccc32)c2ccccc21	111
CC(=O)Oc1cc(C)c2c(c1C(OC(C)=O)OC(C)=O)Oc1c(c(C)c(OC(C)=O)c3c1C(OC(C)=O)OC3=O)OC2=O (stereo unspecified)	96.1
O=C(OCC(O)CO)c1ccccc1Nc1ccnc2cc(Cl)ccc12 (stereo unspecified)	119
CCC1(C)CC(=O)NC1=O (stereo unspecified)	123
CCC(C)C(=O)O[C@@H]1C[C@@]2(C)[C@H](c3ccoc3)OC(=O)CC23OC2(C)OC34[C@H](OC(=O)C(C)C)[C@@]3(O)[C@@H](OC(=O)C5(C)OC5C)[C@@]5(C)C[C@]3(O)[C@@](C)([C@H]5CC(=O)OC)C14O2 (stereo partly specified)	112
CC(=O)OCC(=O)[C@@]12OC3(CCCC3)O[C@@H]1CC1C3CCC4=CC(=O)C=C[C@]4(C)[C@@]3(F)[C@@H](O)C[C@@]12C (stereo partly specified)	90.4
CN1CCOC(c2ccccc2)c2ccccc2C1 (stereo unspecified)	110
NC(N)=O	91.3
NCC(N)C(=O)c1ccccc1 (stereo unspecified)	109
Cc1[nH]ccc2c1[nH]c1cc(=O)ccc12	118
NCC(O)CC(=O)O (stereo unspecified)	98.6
CC(=O)Nc1ccccc1	103
COc1ccc(C(=O)N2CCCC2=O)cc1	112
O=c1oc2ccccc2cc1O	110
CCCN(CCC)C(=O)C(CCC(=O)O)NC(=O)c1ccccc1 (stereo unspecified)	115
CC(C)(C)CC(C)(C)c1ccc(OCCOCC[N+](C)(C)Cc2ccccc2)cc1	113
CCCOc1ccc(C(=O)OCCN(CC)CC)cc1N	109
O=C1[C@H](CCC(O)c2ccc(F)cc2)[C@@H](c2ccc(O)cc2)N1c1ccc(F)cc1 (stereo partly specified)	122
CCCc1nc(C(C)(C)O)c(C(=O)OCc2oc(=O)oc2C)n1Cc1ccc(-c2ccccc2-c2nn[nH]n2)cc1	121
NC(C(=O)O)C(O)C(=O)O (stereo unspecified)	97.5
CC(C)(S)C(N)C(=O)O (stereo unspecified)	128
Nc1ccc(S(=O)(=O)Nc2cnc3ccccc3n2)cc1	123

----------
test system: Aerobactin synthetase IucA (Klebsiella pneumoniae hvKP1); assay: Biochemical IucA enzyme inhibition primary screen of the Spectrum library (AID 1346200); conditions: malachite green pyrophosphate, A620, at 8 µM, stronger effect = lower value;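 further: 100% = wells without compound and 0% = wells lacking enzyme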
metric name: activity remaining (%)

>>> df
                                   compound         metric_name  observed_result
0   Cc1ccc(-c2nc3ccc(C)cn3c2CC(=O)N(C)C)cc1  activity remaining              101
1  Clc1ccc(CO/N=C(\Cn2ccnc2)c2ccc(Cl)cc2Cl)c(Cl)c1  activity remaining              128
2  CN1C2CC[C@@H]1CC(OC(=O)[C@H](CO)c1ccccc1)C2 (stereo not given in full)  activity remaining              102
3  C[C@H]1CCCC(=O)CCC/C=C/c2cc(O)cc(O)c2C(=O)O1  activity remaining              103
4  C=C1C2=CC(=O)O[C@@H](c3ccoc3)[C@]2(C)CCC1[C@@]1(C)C=CC(=O)C(C)(C)[C@@H]1CC(=O)OC (stereo not given in full)  activity remaining              100
